Each recorded value in this set is attributed to patent US20140072563A1.

# system: T1, hErbB3.hFc (soluble dimeric human ErbB3 extracellular domain fused to human Fc) (human)
# T1 construct: called dimeric
# T1 sequence (chain, as listed by the source limits assumed): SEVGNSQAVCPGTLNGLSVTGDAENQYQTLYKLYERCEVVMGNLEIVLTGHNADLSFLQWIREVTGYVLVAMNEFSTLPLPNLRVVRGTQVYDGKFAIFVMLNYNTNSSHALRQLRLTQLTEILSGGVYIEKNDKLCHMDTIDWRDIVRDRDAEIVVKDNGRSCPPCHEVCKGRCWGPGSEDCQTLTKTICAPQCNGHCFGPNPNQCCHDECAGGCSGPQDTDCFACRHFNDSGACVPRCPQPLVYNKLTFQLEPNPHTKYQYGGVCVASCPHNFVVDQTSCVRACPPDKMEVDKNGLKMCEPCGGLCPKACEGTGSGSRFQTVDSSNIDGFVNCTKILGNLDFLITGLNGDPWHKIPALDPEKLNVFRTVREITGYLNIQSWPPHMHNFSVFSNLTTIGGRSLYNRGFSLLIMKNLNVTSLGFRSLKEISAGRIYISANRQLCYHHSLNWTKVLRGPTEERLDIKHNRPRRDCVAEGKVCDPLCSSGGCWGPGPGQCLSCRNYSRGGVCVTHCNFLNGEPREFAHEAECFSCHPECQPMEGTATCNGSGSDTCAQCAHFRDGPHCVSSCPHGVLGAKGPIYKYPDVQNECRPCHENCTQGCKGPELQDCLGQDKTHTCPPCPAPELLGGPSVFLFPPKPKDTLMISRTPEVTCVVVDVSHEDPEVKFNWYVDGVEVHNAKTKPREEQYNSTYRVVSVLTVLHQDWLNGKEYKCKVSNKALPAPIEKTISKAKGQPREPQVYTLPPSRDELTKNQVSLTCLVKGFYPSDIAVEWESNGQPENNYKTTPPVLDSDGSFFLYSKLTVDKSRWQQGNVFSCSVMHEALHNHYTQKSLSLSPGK
# assay.summary: blocking ELISA: antibody + 50 pM ErbB3-hFc on neuregulin1b-coated plate
readout.type: pIC50
By convention, pIC50 is the negative base-10 log of a molar concentration.

• H2M1938N (antibody, V domains shown, Hybridoma chimeric antibody: human variable domains, mouse IgG2 Fc (H2M prefix)) VH: EVQLVESGGGVVRPGGSLRLSCAASGFTFDDYGMSWVRQVPGKGLEWVSGLNWNGGITGYTDSVKGRFTISRDNAKNSLYLQMNSLRAEDTAFYHCARDSGDQDAFDIWGQGTMVTVSS VL: QIVMTQSPATLSVSPGERATLSCRASQSITPYLAWYQQKPGQTPRLLIYGVSTRATGIPARFSGSGSGTEFTLTISSLQSEDFAVYYCQQYDNWYTFGQGTKLEIK = 10.60
• H1M1819N (antibody, V domains shown, Hybridoma chimeric antibody: human variable domains, mouse constant domains (H1M prefix, mouse Fc)) VH: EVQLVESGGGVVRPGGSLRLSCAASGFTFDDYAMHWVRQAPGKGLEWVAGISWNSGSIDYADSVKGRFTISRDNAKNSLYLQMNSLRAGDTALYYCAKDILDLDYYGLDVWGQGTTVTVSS VL: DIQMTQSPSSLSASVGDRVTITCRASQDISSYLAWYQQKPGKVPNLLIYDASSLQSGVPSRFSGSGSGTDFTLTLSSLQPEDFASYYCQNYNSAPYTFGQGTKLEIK = 10.50

The binder listed as H2M1937N (antibody, V domains shown, Hybridoma chimeric antibody: human variable domains, mouse IgG2 Fc (H2M prefix)) VH: QVQLQQWDAGLLKPSETLSLTCAVYGGSFSSYYWSWIRQPPGKGLEWIGEINHRGSTNYNPSLKSRVTISVDTSKNQFSLKLRSVTAADTAVYYCARGGVAARPDWHFFDYWGQGTLVTVSS VL: DIQMTQSPSSLSASVGDRVTITCRASQVIRNDLGWFQQRPGKAPKRLIYAASSLQSEVPSRFSGSGSGTEFTLTITSLQPEDFATYYCLQHNSYPLTFGQGTRLEIK has a reported pIC50 of 10.36
